src = ChEMBL document CHEMBL5214999

Target: Bromodomain-containing protein 4 (Homo sapiens)
Assay: Inhibition of BRD4 BD1 (unknown origin) measured by TR-FRET assay
pIC50: −log10 of the molar value.
experimental.readout: pIC50

Worked examples, 2 compounds total:
>>> measured_number("COc1cc2c(cc1OC)CC(=O)N(C)C=C2")
5.70
>>> measured_number("C[C@H]1C(=O)N(C)C=C(c2cnn(C)c2)c2cc([C@@H](O)CO)ccc21")
7.50

1. C[C@H]1C(=O)N(C)C=Cc2cc(CCO)ccc21
2. CCS(=O)(=O)c1ccc2c(c1)C(C)=CN(C)C(=O)[C@@H]2C
3. Cc1noc(C)c1-c1ccccc1
4. CCS(=O)(=O)c1ccc2c(c1)C(c1cnn(C)c1)=CN(C)C(=O)[C@@H]2C
Prompt: Ordering criterion: pIC50; begin with the maximum. API: response body holds the labels in the requested order.
Response: 4, 2, 1, 3
(4: 7.40, 2: 7.10, 1: 6.40, 3: 4.30)

###

Assay: Intrinsic clearance in dog hepatocytes incubated upto 45 mins by LC-MS/MS analysis
Format: ADME, cell-based, Canis lupus familiaris, Hepatocyte
Conditions: 0.75 h
experimental.readout: CLH (mL/min/g)

Field: example entries. Status: answers known.
>>> measured_number("COc1cc2c(cc1OC)[C@@H](C)C(=O)N(C)C=C2")
2.64
>>> measured_number("C[C@H]1C(=O)N(C)C=C(c2cnn(C)c2)c2cc([C@H](O)CO)ccc21")
1.12

1. C[C@H]1C(=O)N(C)C=Cc2cc(CN3CCOCC3)ccc21
2. CCS(=O)(=O)c1ccc2c(c1)C(C)=CN(C)C(=O)[C@@H]2C
Prompt: Lower value of CLH belongs to which: 1 or 2 ? API: response body contains the label of the selected item.
Response: 2
(2: 0.77 mL/min/g, 1: 3.37 mL/min/g)

###

Assay: Half-life in Beagle dog at 1.5 mg/kg, po or 0.5 mg/kg, iv measured upto 24 hrs by LC-MS/MS analysis
Type: ADME, organism-based, Canis lupus familiaris
Settings: in vivo
experimental.readout: half-life (h)
Your answer is read as h, so omit the unit and give the number.

# half-life (compound: "C[C@H]1C(=O)N(C)C=C(c2cnn(C)c2)c2cc([C@@H](O)CO)ccc21" ) is 1.4

###

Experiment: Volume of distribution at steady state in Wistar Han rat at 3.1 mg/kg, po or 1 mg/kg, iv measured upto 24 hrs by LC-MS/MS analysis
Type: ADME, organism-based
Details: in vivo, read-out: Vdss
experimental.readout: Vd (L/kg)

>>> measured_number("C[C@H]1C(=O)N(C)C=C(c2cnn(C)c2)c2cc([C@H](O)CO)ccc21")
1.1
>>> measured_number("C[C@H]1C(=O)N(C)C=C(c2cn[nH]c2)c2cc([C@H](O)CO)ccc21")
1

###

Target: Bromodomain-containing protein 4 (Homo sapiens)
Experiment: Inhibition of BRD4 BD1 (unknown origin) measured by TR-FRET assay
pIC50: −log10 of the molar value.
experimental.readout: pIC50

Use these answered entries as a reference point.
>>> measured_number("COCCOc1ccc2c(c1)C=CN(C)C(=O)[C@@H]2C")
6.50
>>> measured_number("CCOc1ccc2c(c1)C(c1cc[nH]n1)=CN(C)C(=O)C2C (racemic)")
7.50

a. C[C@H]1C(=O)N(C)C=C(c2cn[nH]c2)c2cc([C@@H](O)CO)ccc21
b. C[C@H]1C(=O)N(C)C=Cc2cc(OC(CO)CO)ccc21
c. CC(=O)N1CCCc2ccccc21
Prompt: Order by pIC50, ascending. Form field (ranking): labels in requested order.
Response: c, b, a
(c: 3.60, b: 6.40, a: 7.60)

###

Experiment: Volume of distribution at steady state in Beagle dog at 1.5 mg/kg, po or 0.5 mg/kg, iv measured upto 24 hrs by LC-MS/MS analysis
Assay type: ADME, organism-based, Canis lupus familiaris
Settings: in vivo, read-out: Vdss
experimental.readout: Vd (L/kg)
Number only, in L/kg; omit the unit.

Entry "C[C@H]1C(=O)N(C)C=C(c2cnn(C)c2)c2cc([C@@H](O)CO)ccc21" ; Vd = 2.7

###

Test: Volume of distribution at steady state in Wistar Han rat at 3 mg/kg, po or 1 mg/kg, iv measured upto 24 hrs by LC-MS/MS analysis
Assay type: ADME, organism-based
Details: in vivo, read-out: Vdss
experimental.readout: Vd (L/kg)
# value in L/kg; strip the unit string

Lab note: "C[C@H]1C(=O)N(C)C=C(c2cnn(C)c2)c2cc([C@@H](O)CO)ccc21" gave Vd of 1.3

###

Test: Artificial membrane permeability of the compound
Format: ADME
Conditions: PAMPA; read-out: permeability
experimental.readout: Papp (×10⁻⁶ cm/s)

Sample answers from the record:
>>> measured_number("C[C@H]1C(=O)N(C)C=Cc2ccccc21 (racemic)")
100
>>> measured_number("CCOc1ccc2c(c1)C(n1ccnc1)=CN(C)C(=O)C2C (racemic)")
58
>>> measured_number("C[C@H]1C(=O)N(C)C=Cc2cc(CN3CCCC3)ccc21")
36

A. C[C@H]1C(=O)N(C)C=Cc2cc(CCO)ccc21
B. C[C@H]1C(=O)N(C)C=Cc2cc(C(O)CO)ccc21 (stereo partly specified)
C. CCOc1ccc2c(c1)C(c1c[nH]cn1)=CN(C)C(=O)[C@@H]2C
Prompt: Write the entries in order, lowest recorded Papp first. The reply should contain the labels ordered as requested.
Response: B, A, C
(B: 2.7 ×10⁻⁶ cm/s, A: 24 ×10⁻⁶ cm/s, C: 46 ×10⁻⁶ cm/s)

###

Assay: Clearance in Beagle dog blood at 1.5 mg/kg, po or 0.4 mg/kg, iv measured upto 24 hrs by LC-MS/MS analysis
Assay type: ADME, organism-based, Canis lupus familiaris
Settings: whole blood
experimental.readout: clearance (mL/min/kg)
Expressed in mL/min/kg, but write only the number.

GET /value?item= "C[C@H]1C(=O)N(C)C=C(c2cnn(C)c2)c2cc([C@H](O)CO)ccc21" &field=clearance returns 45

###

Assay: Lipophilicity, logD of compound at pH 7.4 by Chromatography
Type: physicochemical
Conditions: buffer
experimental.readout: chromatographic logD

>>> measured_number("CCOc1ccc2c(c1)C(c1c[nH]cn1)=CN(C)C(=O)[C@@H]2C")
2.7

I. CCS(=O)(=O)c1ccc2c(c1)C=CN(C)C(=O)[C@@H]2C (racemic)
II. C[C@H]1C(=O)N(C)C=Cc2cc(C(CO)CO)ccc21
III. CCOc1ccc2c(c1)C=CN(C)C(=O)C2C (racemic)
Prompt: Sort the 3 molecules by chromatographic logD; largest first, smallest last. Field: ranking. Enter the labels in the order requested.
Response: III, I, II

###

Experiment: Stability of compound in simulated gastric fluid assessed as half-life at pH 6 to 10 in presence of hydrogen peroxide
Type: ADME
experimental.readout: half-life

Measured half-life of "C[C@H]1C(=O)N(C)C=C(c2cnn(C)c2)c2cc([C@@H](O)CO)ccc21" : > 41.7 days

###

Assay: Volume of distribution at steady state in Beagle dog at 1.5 mg/kg, po or 0.4 mg/kg, iv measured upto 24 hrs by LC-MS/MS analysis
Type: ADME, organism-based, Canis lupus familiaris
Conditions: in vivo, read-out: Vdss
experimental.readout: Vd (L/kg)
Just the number in L/kg, nothing appended.

So, "C[C@H]1C(=O)N(C)C=C(c2cnn(C)c2)c2cc([C@H](O)CO)ccc21" ? Its Vd was 1.7

###

Target: Bromodomain-containing protein 4 (Homo sapiens)
Test: Inhibition of BRD4 BD2 (unknown origin) measured by TR-FRET assay
experimental.readout: IC50 (nM)

>>> measured_number("COc1cc2c(cc1OC)[C@@H](C)C(=O)N(C)C=C2")
631
>>> measured_number("CCS(=O)(=O)c1ccc2c(c1)C=CN(C)C(=O)[C@@H]2C (racemic)")
1260
>>> measured_number("CCc1ccc2c(c1)C=CN(C)C(=O)[C@@H]2C")
631
>>> measured_number("CCOc1ccc2c(c1)C(c1cn(C)cn1)=CN(C)C(=O)[C@@H]2C")
25.1
>>> measured_number("Cc1noc(C)c1-c1ccccc1")
158000

A. C[C@H]1C(=O)N(C)C=C(c2cnn(C)c2)c2cc([C@H](O)CO)ccc21
B. COc1cc2c(cc1OC)CC(=O)N(C)C=C2
Prompt: # argmax over IC50 for candidates A and B // respond with label for picked entry
Response: B

P. CCOc1ccc2c(c1)C(c1cn[nH]c1)=CN(C)C(=O)[C@@H]2C
Q. CC(=O)N1CCCc2ccccc21
Prompt: Task for the reader: decide whether P or Q has the larger IC50. // return label of chosen record
Response: Q
(Q: 126000 nM, P: 3.98 nM)

P. CCS(=O)(=O)c1ccc2c(c1)C(c1ccncc1)=CN(C)C(=O)C2C (racemic)
Q. C[C@H]1C(=O)N(C)C=C(c2cn[nH]c2)c2cc([C@H](O)CO)ccc21
Prompt: Which shows the larger IC50 value: P or Q ? # reply format: chosen label
Response: P
(P: 1580 nM, Q: 25.1 nM)
